Data provenance is patent US7737143B2.

# ASSAYED SYSTEM: human JAK2 (Homo sapiens, UniProt O60674)
# Construct: The kinase domain of human JAK2 was amplified from U937mRNA; His tag (pFastBac HTc vector; nickel chelate purification) (N); made in house; host or cells: baculovirus; Sf9 for virus, High Five insect cells for production
# Sequence (O60674 849-1124 limits assumed): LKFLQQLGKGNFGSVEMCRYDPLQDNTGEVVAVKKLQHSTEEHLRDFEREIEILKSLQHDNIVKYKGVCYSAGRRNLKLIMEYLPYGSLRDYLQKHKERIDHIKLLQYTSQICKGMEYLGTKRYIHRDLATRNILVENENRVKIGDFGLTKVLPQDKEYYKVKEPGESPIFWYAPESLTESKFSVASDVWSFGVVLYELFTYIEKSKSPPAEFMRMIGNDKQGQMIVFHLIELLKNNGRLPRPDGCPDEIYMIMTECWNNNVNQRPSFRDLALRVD
# PROTOCOL DESCRIPTION: JAK kinase assay (ELISA or Alphascreen), Jak2
# Assay type: biochemical
# CONDITIONS USED: standard conditions, read-out: Jak2 inhibition of enzyme activity
Overview of recorded inhibition at 20 µM for various molecules

>  <MOLECULE>
CNCCN(C)Cc1ccc2ncn(-c3cncc(NC(C)c4ccc(F)cc4)n3)c2c1 (centres unmarked)

>  <inhibition at 20 µM>
< 50%

$$$$

For the molecule CC(Nc1cncc(-n2cnc3cc(C#N)ccc32)n1)c1cccc(F)c1 (centres unmarked) , what inhibition at 20 µM is on record?
≥ 50%

For the molecule `C[C@H](Nc1cncc(-n2cnc3cc(-c4nn[nH]n4)ccc32)n1)c1ccc(F)cc1` , what inhibition at 20 µM is on record?
< 50%

For the molecule N#Cc1ccc2c(c1)ncn2-c1cncc(NC2CCc3cc(Br)ccc32)n1 (centres unmarked) , what inhibition at 20 µM is on record?
< 50%

For the molecule `COc1cccc([C@H](C)Nc2cncc(-n3cnc4ccccc43)n2)c1` , what inhibition at 20 µM is on record?
< 50%

----------
Overview of recorded inhibition at 20 µM for various compounds
# ASSAYED SYSTEM: human JAK2 (Homo sapiens)
# Construct: The kinase domain of human JAK2 was amplified from U937mRNA; His tag (pFastBac HTc vector; nickel chelate purification) (N); made in house; host or cells: baculovirus; Sf9 for virus, High Five insect cells for production
# PROTOCOL DESCRIPTION: JAK kinase assay (ELISA or Alphascreen), Jak2
# Type: biochemical
# CONDITIONS USED: standard conditions, read-out: Jak2 inhibition of enzyme activity

Look over these answered cases.
>  <COMPOUND>
C[C@H](Nc1cncc(-n2cnc3ccc(CN4CCOCC4)cc32)n1)c1ccc(F)cc1

>  <ASSAYED SYSTEM>
human JAK2 (Homo sapiens)

>  <inhibition at 20 µM>
≥ 50%

$$$$
>  <COMPOUND>
C[C@H](Nc1cncc(-n2cnc3cc(NC(=O)N4CCN(C)CC4)ccc32)n1)c1ccccc1

>  <ASSAYED SYSTEM>
human JAK2 (Homo sapiens)

>  <inhibition at 20 µM>
≥ 50%

$$$$
>  <COMPOUND>
N#Cc1ccc2ncn(-c3cncc(N[C@H]4CCc5ccccc54)n3)c2c1

>  <ASSAYED SYSTEM>
human JAK2 (Homo sapiens)

>  <inhibition at 20 µM>
≥ 50%

$$$$
>  <COMPOUND>
CC(Nc1cncc(-n2cnc3ccc(C#N)cc32)n1)c1ccc(F)c(Cl)c1 (stereo not shown)

>  <ASSAYED SYSTEM>
human JAK2 (Homo sapiens)

>  <inhibition at 20 µM>
≥ 50%

$$$$

Moving on to the next compound.
For the compound COc1ccc2c(c1)CCC2Nc1cncc(-n2cnc3ccc(C#N)cc32)n1 (stereo not shown) , what inhibition at 20 µM is on record?
< 50%

----------
# ASSAYED SYSTEM: human JAK3 (Homo sapiens, UniProt P52333)
# Construct: The kinase domain of human JAK3 was amplified from U937mRNA; His tag (pFastBac HTb vector; nickel chelate purification) (N); made in house; host or cells: baculovirus; Sf9 for virus, High Five insect cells for production
# Sequence (P52333 822-1111 limits assumed): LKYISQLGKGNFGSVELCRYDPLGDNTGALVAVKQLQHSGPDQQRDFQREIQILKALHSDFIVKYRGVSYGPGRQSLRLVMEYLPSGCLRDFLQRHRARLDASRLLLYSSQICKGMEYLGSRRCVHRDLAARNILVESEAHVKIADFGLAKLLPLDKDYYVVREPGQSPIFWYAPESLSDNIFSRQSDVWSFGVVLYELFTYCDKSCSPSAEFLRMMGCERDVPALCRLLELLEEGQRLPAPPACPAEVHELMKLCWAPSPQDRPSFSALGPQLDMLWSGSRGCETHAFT
# PROTOCOL DESCRIPTION: JAK kinase assay (ELISA or Alphascreen), Jak3
# Format: biochemical
# CONDITIONS USED: standard conditions, read-out: Jak3 inhibition of enzyme activity
Overview of recorded inhibition at 20 µM for various molecules

>  <MOLECULE>
C[C@@H](c1ccccc1)N(C)c1cncc(-n2cnc3ccc(C#N)cc32)n1

>  <MEASURED RESULT>
≥ 50%

$$$$
>  <MOLECULE>
N#Cc1ccc2ncn(-c3cncc(N4CCc5ccccc5C4)n3)c2c1

>  <MEASURED RESULT>
< 50%

$$$$
>  <MOLECULE>
CC(Nc1cncc(-n2cnc3ccccc32)n1)c1ccncc1 (stereo not shown)

>  <MEASURED RESULT>
< 50%

$$$$

Moving on to the next molecule.
For the molecule CC(Nc1cncc(-n2cnc3ccc(C#N)cc32)n1)c1ccc(F)c(Cl)c1 (stereo not shown) , what inhibition at 20 µM is on record?
≥ 50%
